Target: Recombinant human Factor B catalytic domain (Homo sapiens (Human), UniProt P00751)
Sequence (P00751 470-764): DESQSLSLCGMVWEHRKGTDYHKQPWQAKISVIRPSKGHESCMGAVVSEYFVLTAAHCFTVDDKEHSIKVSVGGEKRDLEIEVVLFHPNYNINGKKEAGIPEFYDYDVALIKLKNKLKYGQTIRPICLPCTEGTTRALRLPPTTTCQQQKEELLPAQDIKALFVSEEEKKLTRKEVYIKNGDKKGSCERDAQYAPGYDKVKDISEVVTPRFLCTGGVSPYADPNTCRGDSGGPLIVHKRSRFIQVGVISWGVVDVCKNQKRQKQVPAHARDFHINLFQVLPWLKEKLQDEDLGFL
Experiment: Factor B binding assay by TR-FRET
Settings: Factor B TR-FRET IC50 (nM), 10 nM his-tagged Factor B catalytic domain, 100 nM tracer, 1 h
measured parameter: IC50

Known IC50 results, listed for orientation:
molecule="Cc1cc(C)c2[nH]ccc2c1CN1CCC2(CCCO2)CC1c1ccc(C(=O)O)cc1 (single isomer, unassigned) [2 (Isomer 3)]" experimental_value="507 nM"
molecule="Cc1cc(C)c2[nH]ccc2c1CN1CCC(CCCO)=CC1c1ccc(C(=O)O)cc1 (single isomer, unassigned) [2 (Isomer 2)]" experimental_value="360 nM"
molecule="COc1cc(C)c2[nH]ccc2c1CN1CC2(CCOCC2)CC1c1ccc(C(=O)O)cc1 (stereo not shown)" experimental_value="132 nM"

Field: next molecule
Return reported IC50. Input molecule: COc1cc(C)c2[nH]ccc2c1CN1CCC2(CCOC2)CC1c1ccc(C(=O)O)cc1 (single isomer, unassigned) [36 (Isomer 2)] 16.6 nM
